Hello, the source for this data is PubChem BioAssay, in case you need it.

- System: Inhibin beta A chain (activin A)
- Assay Info: INHBA (activin A) binders on microarrays, primary screen, biochemical, small-molecule microarray, 635 nm fluorescence scan (AID 1107);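 also: mouse activin A protein probed at 4.33 µg/mL on printed slides; score merges bound-protein fluorescence near 667 nm with spot signal-to-noise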
- Condition Label: small-molecule microarray binding, higher = more signal
Known composite z-score of a selection of compounds
Measured Metric: composite z-score

Compound	Number
[N-]=[N+]=NCc1ccccc1C[C@@]1(C(=O)NCCN2CCOCC2)N=C(c2ccc(OCCCO)cc2)O[C@@H]1c1ccccc1N=[N+]=[N-]	0.822
C[C@H]1C2=C3C(CC[C@H]4C(OCc5ccc(F)cc5C(F)(F)F)OC[C@](C)([C@@H]34)N(C(=O)OC(C)(C)C)C2)C(CO)C1CO (stereo not given in full)	1.09
COc1ccc(NN2C(C(O)c3ccco3)C=CC3C(=O)N(C4CCCCC4)C(=O)C32)cc1 (stereo not given)	0.725
COc1cc(CO)cc(I)c1O[C@H]1C=C(C(=O)NCCO)C[C@@H](N(CC2CCCCC2)C(=O)c2ccc(C(F)(F)F)cc2)[C@@H]1O	0.0031
COc1ccc(C(O)C2C=CC3C(=O)N(C)C(=O)C3N2N2CCCCC2)cc1 (stereo not given)	1.31
C=CC[C@@]1(C(=O)N2CCCCC2)N=C(c2ccc(OCCCO)cc2)O[C@@H]1c1ccccc1	0.823
C=C(COC)/C(=C/C[C@@H](OC(=O)c1ccncc1)c1cccc(OCCO)c1)c1cnc2ccccc2c1	1.81
COC(=O)C1(Cc2ccccc2)C=C2C(=C(c3ccccc3)C(=O)C2C)CN1 (stereo not given)	1.69
CC(=O)n1cc(C(O)C2C=CC3C(=O)N(c4ccccc4)C(=O)C3N2Nc2ccccc2)c2ccccc21 (stereo not given)	1.93
CCCC=C(CCC)[C@@H](NP(=O)(c1ccccc1)c1ccccc1)c1ccc(C(F)(F)F)cc1	0.589
CC(C)N1CC=CC23O[C@@H]4C=CCOC(=O)[C@@H]4[C@H]2C(=O)N(C(C)CO)[C@@H]3C1=O (stereo not given in full)	-0.116
CC(C)CNC(=O)[C@@H]1c2ccccc2C(=O)N(Cc2cc(F)cc(C(F)(F)F)c2)[C@H]1c1ccc(CO)cc1	0.669
COc1cc2c(cc1OC)CN(C(=O)[C@H]1[C@@H]3C(=O)O[C@@H](c4ccccc4)[C@@H](c4ccccc4)N3[C@@H](c3ccc(OCCO)cc3)[C@]13C(=O)Nc1ccc(C#CC4(O)CCCCCC4)cc13)CC2	1.07
COc1ccc([Si](C)(C)[C@@H]2[C@@H](CCO)O[C@]3(C(=O)N(Cc4cccc(N5C(=O)c6cccc7cccc5c67)c4)c4ccccc43)[C@H]2C)cc1	-0.0335
CCCN1C(=O)[C@]2(Cc3ccccc3)N=C(c3ccc(OCCCO)cc3)O[C@@H]2c2ccccc21	0.808

====

- Assay Info: binders from COS7 lysate, DM2A8 probe, primary screen, torsin A project, cell lysate, small-molecule microarray, fluorescence 635/667 (AID 1065)
- Condition Label: higher = more signal, COS7 lysate expressing mutant human TOR1A
Measured Metric: composite z-score

Compound	Measured Metric	Number
C[C@]12C(=O)N(CCCCCCO)[C@@H]3C(=O)N(c4ccc(Cl)cc4)CC=CC31O[C@@H]1/C=C\CCCOC(=O)C12 (stereo partly specified)	composite z-score	-0.268
COc1ccc([Si](C)(C)[C@H]2[C@H](CC(=O)N3Cc4ccccc4C[C@H]3CO)O[C@@]3(C(=O)N(Cc4cccc(N5CCCCC5=O)c4)c4ccccc43)[C@@H]2C)cc1	composite z-score	0.576
C[C@]1(C(=O)NCCN2CCOCC2)c2ccccc2C(=O)N(Cc2ccc(OC(F)(F)F)cc2)[C@H]1c1ccc(CO)cc1	composite z-score	0.317
O=C1O[C@@H](c2ccccc2)[C@@H](c2ccccc2)N2[C@@H](c3ccccc3OCCO)[C@]3(C(=O)Nc4ccc(C#CCCO)cc43)[C@@H](C(=O)Nc3nc4ccccc4s3)[C@H]12	composite z-score	0.74
CCOC(=O)[C@H]1C/C=C/C[C@H](C(=O)OCC)C(=O)O[C@H]2[C@@H](OC)O[C@H](CO)[C@@H](OC(=O)Nc3ccc(OC)cc3)[C@@H]2OC1=O	composite z-score	0.753
COC(=O)[C@@]1(Cc2ccc(OC)cc2)[C@H]2c3cc(C(=O)N(C)C)n(CCc4c[nH]c5ccc(O)cc45)c3C[C@H]2CN1C(=O)c1ccccc1	composite z-score	-0.0234
